Target: Cyclin-dependent kinase 8 (Homo sapiens, UniProt P49336)
Sequence (P49336 whole entry): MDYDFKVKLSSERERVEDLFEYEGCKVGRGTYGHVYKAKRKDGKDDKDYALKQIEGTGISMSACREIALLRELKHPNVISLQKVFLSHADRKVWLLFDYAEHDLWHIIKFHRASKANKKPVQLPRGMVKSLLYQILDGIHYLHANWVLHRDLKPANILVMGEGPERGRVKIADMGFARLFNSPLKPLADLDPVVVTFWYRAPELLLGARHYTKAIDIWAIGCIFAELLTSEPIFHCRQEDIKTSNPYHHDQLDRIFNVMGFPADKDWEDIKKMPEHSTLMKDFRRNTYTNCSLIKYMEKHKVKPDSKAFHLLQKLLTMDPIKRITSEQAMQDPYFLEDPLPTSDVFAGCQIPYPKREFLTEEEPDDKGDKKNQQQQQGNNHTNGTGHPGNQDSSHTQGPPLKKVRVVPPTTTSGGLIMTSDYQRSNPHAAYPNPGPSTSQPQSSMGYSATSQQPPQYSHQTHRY
Test: Inhibition of CDK8 in human SW480 cells assessed as decrease in STAT1 phosphorylation at Ser727 after 2 hrs by Western blot method
endpoint_label: EC50

Here's what some known entries look like.
INSERT INTO assay_data (chemical_string, observed_result) VALUES
  ('CSc1sc(C(=O)O)c2c1-c1sncc1CC2', '> 10 µM'),
  ('CSc1sc(C(=O)Nc2ccccc2)c2c1-c1sncc1CC2', '> 10 µM');

EC50 on Cyclin-dependent kinase 8 (Homo sapiens, UniProt P49336) for CSc1sc(C(N)=O)c2c1-c1nn(C)cc1CC2 is > 10 µM
